assay target: human Claudin-6 (CLDN6) (human) (UniProt P56747)
method description: FACS, limiting dilution, OV90 cells
Measured FACS signal at 200 nM of individual entries
# respond with the number and nothing more

Before answering, review these 2 worked examples.
1. AB S1 (antibody, V domains shown) VH: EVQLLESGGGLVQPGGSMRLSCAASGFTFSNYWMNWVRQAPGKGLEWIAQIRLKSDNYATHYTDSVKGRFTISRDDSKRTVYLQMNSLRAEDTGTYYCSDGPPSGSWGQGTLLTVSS VL: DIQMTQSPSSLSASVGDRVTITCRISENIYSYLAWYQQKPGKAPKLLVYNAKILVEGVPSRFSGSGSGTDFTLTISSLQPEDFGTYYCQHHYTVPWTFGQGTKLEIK; 43500
2. AB S12 (antibody, V domains shown) VH: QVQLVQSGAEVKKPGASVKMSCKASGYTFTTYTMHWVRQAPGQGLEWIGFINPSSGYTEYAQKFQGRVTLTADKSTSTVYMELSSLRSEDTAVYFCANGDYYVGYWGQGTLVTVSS VL: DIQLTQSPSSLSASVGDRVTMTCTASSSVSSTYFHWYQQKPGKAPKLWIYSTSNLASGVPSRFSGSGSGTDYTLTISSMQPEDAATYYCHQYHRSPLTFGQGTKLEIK; 38300

Data point: AB S6 (antibody, V domains shown) VH: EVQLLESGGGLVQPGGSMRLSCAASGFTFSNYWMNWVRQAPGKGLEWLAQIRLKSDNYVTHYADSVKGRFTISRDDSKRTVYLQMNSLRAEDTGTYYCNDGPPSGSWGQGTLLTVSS VL: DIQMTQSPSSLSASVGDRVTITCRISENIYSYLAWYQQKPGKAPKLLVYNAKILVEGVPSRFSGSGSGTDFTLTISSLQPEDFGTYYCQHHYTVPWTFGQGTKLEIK ; FACS signal at 200 nM = 38600

According to the records, this binder AB1-11 (antibody, V domains shown, humanized; also called humanized AB1-11; HU-11) VH: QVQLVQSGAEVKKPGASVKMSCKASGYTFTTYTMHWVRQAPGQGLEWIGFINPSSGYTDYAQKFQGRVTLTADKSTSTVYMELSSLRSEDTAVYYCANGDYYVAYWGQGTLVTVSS VL: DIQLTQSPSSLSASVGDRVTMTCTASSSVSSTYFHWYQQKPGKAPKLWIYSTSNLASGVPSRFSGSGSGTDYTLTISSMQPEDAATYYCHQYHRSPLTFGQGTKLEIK displays FACS signal at 200 nM of 32500
